Sourced from PubChem BioAssay AID2029

PROTOCOL: modulators of CIT2-GFP expression in yeast, primary screen, S. cerevisiae, GFP fusion, multiplex flow cytometry, MLPCN library (AID 2029);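 also: ratio of well median GFP fluorescence to mean of DMSO wells on the plate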
COND: S. cerevisiae CIT2-GFP strain, 3 h, at 10 µM, hits give high values, 100 means same as DMSO wells
Hit rate of the full screen: of about 320,000 compounds, about 210 (0.066%) were called active. This is one part of a sample in which actives are shown more often than they occur.
Measured GFP response vs DMSO accompanies every entry in the list below.
Form entry: value (%) — number only.

The following compounds have reported results that may help.
COMPOUND | GFP response vs DMSO [%]
COCC(C)n1c(SCC(=O)NC2CCCCC2C)nc2ccccc2c1=O (stereo not given) | 101
O=C(N/N=C/c1c[nH]c2ccccc12)c1ccccc1O | 80.8
CC1=C2C(=O)OC(c3ccoc3)C2(C)CCC1 (stereo not given) | 103
CC1(C)CC(=O)C=C(N2CCOCC2)C1 | 93.2
CC(C)(C)OC(=O)NCCCCCNC(=O)c1[nH]cnc1C(=O)Nc1nccs1 | 104
COc1ccccc1NC(=O)C[n+]1ccccc1 | 120

For the compound `O=C(c1cc2ccccc2o1)N1CCN(Cc2ccccc2)CC1` , report GFP response vs DMSO. 94.7

Fill in GFP response vs DMSO for record CC(=O)NC1C(Oc2ccc(C=O)cc2)OC(COC(C)=O)C(OC(C)=O)C1OC(C)=O (stereo not given) 102

Please look at this compound and report its GFP response vs DMSO: CCOC(=O)CSc1nc(N2CCOCC2)c2c(c1C#N)CC(C(C)C)OC2 (stereo not given) 104

Give recorded GFP response vs DMSO. `COc1cc(NS(=O)(=O)c2ccc(N/C=C(\C=O)c3nc4cc(Cl)ccc4o3)cc2)nc(OC)n1` 103

Supply measured GFP response vs DMSO of `O=C(COC(=O)c1cc(S(=O)(=O)N2CCOCC2)ccc1Cl)NCCc1ccccc1` in your reply. 98.2

---

PROTOCOL: modulators of CIT2-GFP expression in yeast, primary screen, S. cerevisiae, GFP fusion, multiplex flow cytometry, MLPCN library (AID 2029);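 also: ratio of well median GFP fluorescence to mean of DMSO wells on the plate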
COND: S. cerevisiae CIT2-GFP strain, 3 h, at 10 µM, 100 means same as DMSO wells
About 210 (0.066%) of roughly 320,000 compounds were called active.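 How the source made its calls: active means GFP response relative to DMSO above a set limit, near the screen mean plus 3 SD (cut at about 150% in these data); inconclusive means Fewer than 70 cells measured for a yeast strain; inactive means the rest.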 What follows is part of a selection rich in actives, with near analogues and random picks from the rest.
Classes to choose from: 1 for active, -1 for inactive

Please let me know the test result on file for `O=C(COC(=O)c1ccc(O)cc1O)c1ccc2c(c1)OCCO2` . -1

Dear colleague, could you share the recorded outcome for `COc1cc(C(=O)N(C)Cc2cccc(OC)c2OC)ccc1OCC(=O)Nc1cccc(C(F)(F)F)c1` when you have a moment? -1

// param item: CCC(C)(C)C1CCC(=NNC(=O)c2ccc(Br)o2)CC1 (stereo not given) ; yields the recorded call -1

Recorded test call requested for `NC(=O)c1oc2ccccc2c1NC(=O)CS(=O)(=O)c1ccccc1` -1

---

PROTOCOL: modulators of CIT2-GFP expression in yeast, primary screen, S. cerevisiae, GFP fusion, multiplex flow cytometry, MLPCN library (AID 2029);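 also: ratio of well median GFP fluorescence to mean of DMSO wells on the plate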
COND: S. cerevisiae CIT2-GFP strain, 3 h, at 10 µM, 100 means same as DMSO wells
Hit rate of the full screen: of about 320,000 compounds, about 210 (0.066%) were called active.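 The calls were made as follows: active = GFP response relative to DMSO above a set limit, near the screen mean plus 3 SD (cut at about 150% in these data); inconclusive = Fewer than 70 cells measured for a yeast strain; inactive = the rest.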 Shown is part of a subset that was picked to be rich in actives.
Your answer must be one of the following: yes (active), no (inactive)

Record excerpt, results attached:
COMPOUND | LABEL_CLASS
CC(Oc1ccc(Cl)cc1)c1ccnn1S(C)(=O)=O (stereo not drawn) | no
COc1ccc(/C=N/NC(=O)C(C)N(c2ccc(OC)cc2)S(C)(=O)=O)cc1 (stereo not drawn) | no
Cc1cc2cc3c(N)[nH]nc3nc2cc1C | no

Record request — test call for `CS(=O)(=O)N1CCN=C1SCc1ccc(F)cc1` no

What was the test verdict on `CN(C)CCN(C(=O)C1=COCCO1)c1nc2ccc(Cl)cc2s1` ? no

What did this assay record as the result for `CC1CCN(C(=S)c2cccc([N+](=O)[O-])c2)CC1` ? no

Just curious, what result did `CCSC1=NCCN1S(=O)(=O)c1ccc(F)cc1` get here? yes

Recorded call for `COCCCNS(=O)(=O)c1cccc(S(=O)(=O)c2cccc(S(=O)(=O)NCCCOC)c2)c1` ? no
